test system: SK-OV-3; assay: Cytotoxicity assay (cell titer-glo and calcein AM), SK-OV-3; details: read-out: Cytotoxicity IC50, SK-OV-3, calcein; SK-OV-3; calcein AM readout; % error in parentheses
pIC50: −log10 of the molar value.
experimental-readout: pIC50

molecule="COc1cc2c(c(OC)c1OC)-c1ccc(OC)c(=O)cc1C(NC(=O)CN(OC)C1OCC(O)C(O)C1O)CC2 [Col22, L-riboside]" target_or_test_system=SK-OV-3 qualifier_symbol== numeric_readout=5.32
molecule="COc1cc2c(c(OC)c1OC)-c1ccc(OC)c(=O)cc1C(NC(=O)CN(OC)C1OCC(O)C(O)C1O)CC2 [Col20, D-arabinoside]" target_or_test_system=SK-OV-3 qualifier_symbol=< numeric_readout=5.00
molecule="COc1cc2c(c(OC)c1OC)-c1ccc(OC)c(=O)cc1[C@@H](NC(=O)CN(OC)[C@@H]1OC[C@@H](O)[C@H](O)[C@@H]1O)CC2 [Col1, D-lyxoside]" target_or_test_system=SK-OV-3 qualifier_symbol== numeric_readout=5.40

* * *

Listed here: items and their measured pIC50.
test system: SK-OV-3; assay: Cytotoxicity assay (cell titer-glo and calcein AM), SK-OV-3; settings: read-out: Cytotoxicity IC50, SK-OV-3, CTG; SK-OV-3; CTG (cell titer-glo) readout; % error in parentheses
pIC50: −log10 of the molar value.
experimental-readout: pIC50

molecule="CCCCCCCCCC(=O)NC[C@H]1O[C@@H](N(CC(=O)N[C@H]2CCc3cc(OC)c(OC)c(OC)c3-c3ccc(OC)c(=O)cc32)OC)[C@H](O)[C@@H](O)[C@@H]1O [Col59, 6-deoxy-6-N-decanoyl-D-glucosaminoside]" target_or_test_system=SK-OV-3 qualifier_symbol== numeric_readout=5.29
molecule="CCCCCCCCCC(=O)N[C@@H]1[C@@H](O)[C@H](N(CC(=O)N[C@H]2CCc3cc(OC)c(OC)c(OC)c3-c3ccc(OC)c(=O)cc32)OC)O[C@H](CO)[C@H]1O [Col60, 3-deoxy-3-N-decanoyl-D-glucosaminoside]" target_or_test_system=SK-OV-3 qualifier_symbol== numeric_readout=5.36
molecule="COc1cc2c(c(OC)c1OC)-c1ccc(OC)c(=O)cc1[C@@H](NC(=O)CN(OC)[C@@H]1O[C@H](CBr)[C@H](O)[C@H](O)[C@H]1O)CC2 [Col42, 6-deoxy-6-bromo-D-galactoside]" target_or_test_system=SK-OV-3 qualifier_symbol== numeric_readout=5.08
molecule="COc1cc2c(c(OC)c1OC)-c1ccc(OC)c(=O)cc1[C@@H](NC(=O)CN(OC)[C@@H]1OC[C@@H](O)[C@@H](O)[C@H]1O)CC2 [Col5, D-riboside]" target_or_test_system=SK-OV-3 qualifier_symbol=< numeric_readout=5.00
molecule="COc1cc2c(c(OC)c1OC)-c1ccc(OC)c(=O)cc1[C@@H](NC(=O)CN(OC)[C@@H]1O[C@H](CO)[C@H](O)[C@H](O)[C@H]1NC(C)=O)CC2 [Col28, N-acetyl-D-galactosaminoside]" target_or_test_system=SK-OV-3 qualifier_symbol== numeric_readout=5.29
molecule="COc1cc2c(c(OC)c1OC)-c1ccc(OC)c(=O)cc1[C@@H](NC(=O)CN(OC)[C@@H]1O[C@H](CCl)[C@H](O)[C@H](O)[C@H]1O)CC2 [Col41, 6-deoxy-6-chloro-D-galactoside]" target_or_test_system=SK-OV-3 qualifier_symbol== numeric_readout=5.25
molecule="COc1cc2c(c(OC)c1OC)-c1ccc(OC)c(=O)cc1C(NC(=O)CN(OC)C1OCC(O)C(O)C1O)CC2 [Col7, L-lyxoside]" target_or_test_system=SK-OV-3 qualifier_symbol=< numeric_readout=5.00
molecule="COc1cc2c(c(OC)c1OC)-c1ccc(OC)c(=O)cc1[C@@H](NC(=O)CN(OC)[C@H]1C[C@@H](O)[C@H](O)[C@@H](CO)O1)CC2 [Col16, 2-deoxy-D-glucoside]" target_or_test_system=SK-OV-3 qualifier_symbol== numeric_readout=6.36
molecule="COc1cc2c(c(OC)c1OC)-c1ccc(OC)c(=O)cc1C(NC(=O)CN(OC)C1OC(C)C(O)C(O)C1O)CC2 [Col14, L-fucoside]" target_or_test_system=SK-OV-3 qualifier_symbol=< numeric_readout=5.00
molecule="COc1cc2c(c(OC)c1OC)-c1ccc(OC)c(=O)cc1C(NC(=O)CN(OC)C1OC(COCc3ccccc3)C(OCc3ccccc3)C1OCc1ccccc1)CC2 (centres unmarked) [Col53]" target_or_test_system=SK-OV-3 qualifier_symbol== numeric_readout=7.38
molecule="COc1cc2c(c(OC)c1OC)-c1ccc(OC)c(=O)cc1[C@@H](NC(C)=O)CC2 [Col]" target_or_test_system=SK-OV-3 qualifier_symbol=< numeric_readout=5.00

* * *

test system: Du145; assay: Cytotoxicity assay (cell titer-glo and calcein AM), Du145; settings: read-out: Cytotoxicity IC50, Du145, calcein; Du145; calcein AM readout; % error in parentheses
pIC50: −log10 of the molar value.
experimental-readout: pIC50

compound="COc1cc2c(c(OC)c1OC)-c1ccc(OC)c(=O)cc1C(NC(=O)CN(OC)C1OCC(O)C(O)C1O)CC2 [Col25, L-arabinoside]" experimental_readout=pIC50 result="< 5.00"
compound="COc1cc2c(c(OC)c1OC)-c1ccc(OC)c(=O)cc1[C@@H](NC(=O)CN(OC)[C@@H]1O[C@H](CSC(C)=O)[C@H](O)[C@H](O)[C@H]1O)CC2 [Col68, 6-deoxy-6-thio-acyl-D-galactoside]" experimental_readout=pIC50 result=5.76
compound="COc1cc2c(c(OC)c1OC)-c1ccc(OC)c(=O)cc1[C@@H](NC(=O)CN(OC)[C@@H]1OC[C@@H](O)[C@H](O)[C@H]1O)CC2 [Col4, D-xyloside]" experimental_readout=pIC50 result="< 5.00"

* * *

tested on: SK-OV-3; test: Cytotoxicity assay (cell titer-glo and calcein AM), SK-OV-3; settings: read-out: Cytotoxicity IC50, SK-OV-3, CTG; SK-OV-3; CTG (cell titer-glo) readout; % error in parentheses
pIC50: −log10 of the molar value.
Overview of recorded pIC50 for various molecules
experimental-readout: pIC50

molecule="COc1cc2c(c(OC)c1OC)-c1ccc(OC)c(=O)cc1[C@@H](NC(=O)CN(OC)[C@@H]1O[C@H](CO)[C@@H](N=[N+]=[N-])[C@H](O)[C@H]1O)CC2 [Col44, 4-deoxy-4-azido-D-glucoside]" experimental_readout=pIC50 qualifier_symbol=< numeric_readout=6.00
molecule="COc1cc2c(c(OC)c1OC)-c1ccc(OC)c(=O)cc1C(NC(=O)CN(OC)C1OC(C)C(O)C(O)C1O)CC2 [Col37, L-rhamnoside]" experimental_readout=pIC50 qualifier_symbol== numeric_readout=5.25
molecule="COc1cc2c(c(OC)c1OC)-c1ccc(OC)c(=O)cc1[C@@H](NC(=O)CN(OC)[C@@H]1O[C@H](CO)[C@@H](O[C@H]3O[C@H](CO)[C@@H](O)[C@H](O)[C@H]3O)[C@H](O)[C@H]1O)CC2 [Col38, D-maltoside]" experimental_readout=pIC50 qualifier_symbol== numeric_readout=6.60

* * *

# key: entry, value: pIC50
tested on: Hep3B; experiment: Cytotoxicity assay (cell titer-glo and calcein AM), Hep3B; settings: read-out: Cytotoxicity IC50, Hep 3B, CTG; Hep 3B; CTG (cell titer-glo) readout; % error in parentheses
pIC50: −log10 of the molar value.
experimental-readout: pIC50

molecule="COc1cc2c(c(OC)c1OC)-c1ccc(OC)c(=O)cc1C(NC(=O)CN(OC)C1OCC(O)C(O)C1O)CC2 [Col20, D-arabinoside]" qualifier_symbol=< numeric_readout=5.00
molecule="COc1cc2c(c(OC)c1OC)-c1ccc(OC)c(=O)cc1[C@@H](NC(=O)CN(OC)[C@@H]1O[C@H](C(=O)O)[C@H](O)[C@H](O)[C@H]1O)CC2 [Col18, D-Galacturonoside]" qualifier_symbol== numeric_readout=5.70
molecule="COc1cc2c(c(OC)c1OC)-c1ccc(OC)c(=O)cc1[C@@H](NC(=O)CN(OC)[C@@H]1O[C@H](CSC(C)=O)[C@H](O)[C@H](O)[C@H]1O)CC2 [Col68, 6-deoxy-6-thio-acyl-D-galactoside]" qualifier_symbol== numeric_readout=5.28
molecule="CCCCCCCCCC(=O)N[C@@H]1[C@@H](O)[C@H](N(CC(=O)N[C@H]2CCc3cc(OC)c(OC)c(OC)c3-c3ccc(OC)c(=O)cc32)OC)O[C@H](CO)[C@H]1O [Col60, 3-deoxy-3-N-decanoyl-D-glucosaminoside]" qualifier_symbol== numeric_readout=5.30
molecule="COc1cc2c(c(OC)c1OC)-c1ccc(OC)c(=O)cc1C(NC(=O)CN(OC)C1OCC(O)C(O)C1O)CC2 [Col17, L-xyloside]" qualifier_symbol=< numeric_readout=5.00

* * *

tested on: A549 cells; experiment: Drug combination study with paclitaxel (Chou-Talalay combination index); conditions: combination index, paclitaxel held at IC10, A549 cells;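 further: combination indexes averaged only over points where fraction affected exceeded 0.2, with each synergy experiment repeated at least three times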
experimental-readout: plus paclitaxel, mean CI

compound="CONCC(=O)N[C@H]1CCc2cc(OC)c(OC)c(OC)c2-c2ccc(OC)c(=O)cc21 [Col 8, 19-N-methoxyamino-colchicine]" target_or_test_system="A549 cells" experimental_readout="plus paclitaxel, mean CI" result=0.90
compound="COc1cc2c(c(OC)c1OC)-c1ccc(OC)c(=O)cc1[C@@H](NC(=O)CN(OC)[C@@H]1O[C@H](CO)[C@@H](O)[C@H](O)[C@H]1F)CC2 [Col34, 2-fluoro-2-deoxy-D-glucoside]" target_or_test_system="A549 cells" experimental_readout="plus paclitaxel, mean CI" result=0.18
compound="COc1cc2c(c(OC)c1OC)-c1ccc(OC)c(=O)cc1[C@@H](NC(=O)CN(OC)[C@H]1C[C@@H](O)[C@H](O)[C@@H](CO)O1)CC2 [Col16, 2-deoxy-D-glucoside]" target_or_test_system="A549 cells" experimental_readout="plus paclitaxel, mean CI" result=0.40
compound="COc1cc2c(c(OC)c1OC)-c1ccc(OC)c(=O)cc1[C@@H](N)CC2 [Col 6, deacetyl colchicine]" target_or_test_system="A549 cells" experimental_readout="plus paclitaxel, mean CI" result=0.57
compound="COc1cc2c(c(OC)c1OC)-c1ccc(OC)c(=O)cc1[C@@H](NC(C)=O)CC2 [colchicine, reference compound]" target_or_test_system="A549 cells" experimental_readout="plus paclitaxel, mean CI" result=0.77
